- protocol.details: amyloid nucleation score (Sup35N fusion, yeast selection) (log enrichment); library NNK1; higher = more nucleation; inactive = no reads after selection;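 further: zero at mode of non-aggregating sequences after 7 days selection at 30°C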
Entry class follows amyloid nucleation score: LOW: < -0.2; MEDIUM: ≥ -0.2 and < 1; HIGH: ≥ 1

See these solved cases before continuing.
WGNLASRLQALDQVRRSGSM
LOW
YGYLTITPVQVYIQRTSTWT
HIGH
SHGVVYGFIMLVMEEYLRQQ
LOW
DAQWAYYTRTYFWYVFSAVC
MEDIUM
RMHYIG
MEDIUM
VSFGIFMNESYV
HIGH
GPRFNVALES
LOW
IWDSVLF
HIGH
KLCWASTRMMWRFYFLDCLD
MEDIUM
HVQLELTSCKEGGGCRS
MEDIUM

Bin? RFSTTFYSVAVVYKRDSR
HIGH

Queued: SRNLGMYHMYFKFPWCMNPM
MEDIUM

Queued: WSSYTFR
MEDIUM

Queued: IRRYLSCPYNISIVYSENIV
MEDIUM

Queued: SADPSNYRERIFLKLMKLHG
LOW

Queued: MWPRIPLRDPVVWEHRYCGI
LOW

Queued: FTYSLFCAYI
HIGH

====

- protocol.details: amyloid nucleation score (Sup35N fusion, yeast selection) (log enrichment); library NNK3; higher = more nucleation; inactive = no reads after selection
observed.property: amyloid nucleation score

Sample records with amyloid nucleation score:
VFVVGSVSRCCKKLVT
inactive
YINLFLLSGSFVFRVDHHFI
2.47
LVSLWLDRD
inactive
CCLFADCDLRYFSNRTFFNC
inactive
LLTWMIG
0.714

Which amyloid nucleation score is listed for KLQHIFLFFDRS ?
1.1

Queued: NNIIVVKTAS
inactive

Queued: TRERWTTVYLNKLFLLCYSD
inactive

Queued: LIRCLVRSNVEFNNMGWWSS
inactive

Queued: IDVMEYMLASYRVSWYRGLA
inactive

Queued: TFQDGLLRSDWFIMTLFRRP
inactive

Queued: RTLLGEEWLCSVEMEVVGGQ
inactive

Queued: HPWEARGHPVLHERRNLHSI
inactive

Queued: VIRGRMMCHGIGAYVVWKSH
inactive

Queued: LLSTTSAVAGGMACVSRNMW
inactive

Queued: MYRLIVYT
inactive

Queued: DVMKICMKLSLHICTVHISS
inactive

Queued: MSGVDYLTRLFVYTNESDAV
inactive

Queued: ESRLIISKDGRRSMSKHGGP
inactive

Queued: CRSQMHWLYSQRQIMPVLRS
inactive

Queued: LVMHMRLAWRECDHVSKQMR
0.883

Queued: EAWIIMSRVGI
inactive

Queued: IIFFYGGS
1.9

Queued: SCFSSYCRYNLRLSWRQNFV
-0.474

====

- protocol.details: amyloid nucleation score (Sup35N fusion, yeast selection) (log enrichment); library NNK3; higher = more nucleation; inactive = no reads after selection
observed.property: amyloid nucleation score

KFEGLF
inactive
LSKNSEILIYAYVLETFSCS
inactive
SGGLSSLILSCFHIFIIKTY
inactive
LKGVYSERPNRDAG
inactive
DLGLNYFESSRDPDGSLLYL
inactive
FYSAISVAAYIEMTWESVDM
inactive

Which amyloid nucleation score is listed for YHLFLDVVFFHSTKDESRKN ?
0.187

Queued: ILGAILLSMFDSLYLGGEWR
inactive

Queued: ADLGATAAINQKAWVGDQ
inactive

====

- protocol.details: amyloid nucleation score (Sup35N fusion, yeast selection) (log enrichment); library NNK1; higher = more nucleation; inactive = no reads after selection
observed.property: amyloid nucleation score
Write the number on its own, no unit after it.

Sample records with amyloid nucleation score:
QDTVFYMTDWGCGATKARDD
0.117
DAGGYLQEIARTPFTVARQQ
0.195
KADQCLSWDS
-0.717
NISVVGSSING
0.713
FLNMQYRGLQ
3.42

Which amyloid nucleation score is listed for TQMMDALFLSAL ?
0.935

Queued: VLTEGYLFTSLIDL
-0.22

Queued: FWRNEVMLSCVGTAMARRVF
0.398

====

- protocol.details: amyloid nucleation score (Sup35N fusion, yeast selection) (log enrichment); library NNK3; higher = more nucleation; inactive = no reads after selection
observed.property: amyloid nucleation score

Sample records with amyloid nucleation score:
GCSLGTHSVTLTFM
inactive
KSHPLNSVPEKLMLVWRSWK
inactive
RPYGFKAIVYGQCR
inactive
SSFSVSVVSKGKSVRNSGSL
0.568

Which amyloid nucleation score is listed for YLMSYGRWDRWKWWYFYRLW ?
inactive

Queued: GMCKGMVIGSAVDFTMFSAA
inactive

Queued: FCLLIRAVSPCLTSGRIILV
inactive

====

- protocol.details: amyloid nucleation score (Sup35N fusion, yeast selection) (log enrichment); library NNK2; higher = more nucleation; inactive = no reads after selection
observed.property: amyloid nucleation score

YIGVIT
5.38
LWYMMYLRPLWVRPKIDNEV
1.11
SVLTCKLK
inactive
RVSTVFSLKTRRCEFLFQCV
0.24
RMMVGALAGFMV
0.578
GMMLPVFMIFIRRACINYSL
inactive
NFVLGKTSSVVCSHQSAALT
0.505
TRNGWGSTGSLQRSQVSVWS
0.25

Which amyloid nucleation score is listed for YLWPALPR ?
0.142

====

- protocol.details: amyloid nucleation score (Sup35N fusion, yeast selection) (log enrichment); library NNK2; higher = more nucleation; inactive = no reads after selection
Rule: amyloid nucleation score of 0.5 or more gives criterion met; anything lower gives criterion not met.

Evaluate AYYCLRDLEVEYKVGYGSRL : amyloid nucleation score at minimum 0.5?
criterion met

Queued: RECNRNFQKSGSSEHETGLG
criterion not met

Queued: SFDIPT
criterion not met

====

- protocol.details: amyloid nucleation score (Sup35N fusion, yeast selection) (log enrichment); library NNK2; higher = more nucleation; inactive = no reads after selection
Rule: amyloid nucleation score of 0.6 or more gives 1.0; anything lower gives 0.0.

See these solved cases before continuing.
RNLDFIA
1.0
ALEVLTTLRISLPSHKGSSF
1.0
TALDAGHA
0.0
TDCTLSGKRLRYLNGDCFKK
0.0
MATSMNQHGVRMVWSSRLGS
1.0

Evaluate LTTMFFIMCHEFNLLAVFNY : amyloid nucleation score at minimum 0.6?
1.0

Queued: TASMGVVVSDENWE
1.0

====

- protocol.details: amyloid nucleation score (Sup35N fusion, yeast selection) (log enrichment); library NNK3; higher = more nucleation; inactive = no reads after selection
observed.property: amyloid nucleation score

Sample records with amyloid nucleation score:
EGNCELCRLWYNWGRVAGNK
0.457
LHHSVG
inactive
NVFFIRNNQTTGRLKFWCQV
0.958
LLKLRIQIKVWTS
inactive
CNNLFFSWLKFMLIGIMGH
inactive

Which amyloid nucleation score is listed for YNLDDIDSITLYLAVSLCKV ?
inactive

Queued: LFLFQFRYGSWGFRGYMVGR
0.837

Queued: LMQFLAQLTSLSLSLLEVIW
inactive

Queued: KQRVWR
inactive

Queued: MYQMSTVKRRRVGGSNDMCV
inactive

====

- protocol.details: amyloid nucleation score (Sup35N fusion, yeast selection) (log enrichment); library NNK2; higher = more nucleation; inactive = no reads after selection
Rule: amyloid nucleation score of 0.4 or more gives Criterion met; anything lower gives Criterion not met.

See these solved cases before continuing.
SDHLCRYV
Criterion not met
TIYMMSRDFRF
Criterion met

Evaluate MLCVFRVLPMLNWY : amyloid nucleation score at minimum 0.4?
Criterion not met

Queued: VVRHSLKRL
Criterion not met

Queued: PKRFVLGY
Criterion not met

Queued: IPRFRLYANCRMFNRV
Criterion not met

Queued: TYLNLLSNAMNVAWFS
Criterion met

Queued: RIDILGVTRWN
Criterion met

Queued: VLTALVYVEITF
Criterion met

====

- protocol.details: amyloid nucleation score (Sup35N fusion, yeast selection) (log enrichment); library NNK1; higher = more nucleation; inactive = no reads after selection
Listed next: entries and their corresponding amyloid nucleation score.
Write the number on its own, no unit after it.

Sample records with amyloid nucleation score:
RVTFLWLCLYQGMVALVNSP
-0.156
NWVGGYTEIALLA
-0.344

--- query ---
Which amyloid nucleation score is listed for FCYIHGILGRSVEYDDFCLL ?
0.184

====

- protocol.details: amyloid nucleation score (Sup35N fusion, yeast selection) (log enrichment); library NNK1; higher = more nucleation; inactive = no reads after selection
Listed next: entries and their corresponding amyloid nucleation score.
Write the number on its own, no unit after it.

Which amyloid nucleation score is listed for TRALSFN ?
-0.873

Queued: CCCISDHESNCDSDQSRLGF
0.585

Queued: LLFKNRISPITTI
0.174

Queued: GIVSAESWSLLQDRHFGAVK
0.578

Queued: DAVQLMSCCMTISGPTKNRA
0.184

Queued: CKQCRE
-0.01

Queued: PYLYRTLKKPLATHWSQFVK
-1.22

Queued: SVQDFPDTSNNLASYVPSSW
-0.292

Queued: SLNFTDHIYYMDGLLIAVVE
0.358
